system: PPARg DBDmut:RXRa IVT, anti-PPARg (DBD mutation: PPARg1 K132A/R137A, NR concentration 270 nM, RXRa partner concentration 90 nM); assay: PBM binding z-score (relative to random genomic background probes); higher = stronger binding; sequences stand for … in GC…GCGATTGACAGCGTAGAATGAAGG
Would you please tag the item 1 (yes) when its PBM binding z-score is 0.6 or above, and 0 (no) when it is below?

Identify whether the reported PBM binding z-score of the following sequence is 0.6 or greater: `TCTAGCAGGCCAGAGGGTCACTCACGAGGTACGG`
0 (no)

Reported PBM binding z-score at or above 0.6? `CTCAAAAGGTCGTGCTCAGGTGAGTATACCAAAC`
0 (no)

Is it the case that `GCAGACAGGTGAAACGCAGGCAACTCAGGGTGGC` has PBM binding z-score reaching or exceeding 0.6?
0 (no)

Dear colleague, could you confirm whether `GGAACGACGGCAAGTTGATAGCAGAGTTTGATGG` has PBM binding z-score at or above 0.6?
0 (no)

Threshold query (PBM binding z-score >= 0.6) on `TCATATAGGTAATAGAGGTGAAAGTCGGCATCTA`
1 (yes)

Item `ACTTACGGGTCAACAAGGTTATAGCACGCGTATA` with PBM binding z-score of 0.6 or above?
1 (yes)

Determine whether measured PBM binding z-score meets or exceeds 0.6 for `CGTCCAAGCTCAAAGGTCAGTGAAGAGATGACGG`
0 (no)

Confirm if PBM binding z-score reported for the sequence `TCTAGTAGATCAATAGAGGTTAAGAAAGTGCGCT` is 0.6 or above.
0 (no)

Exam item: decide whether the reported PBM binding z-score for `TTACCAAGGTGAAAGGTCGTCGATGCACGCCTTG` is at least 0.6.
0 (no)

Quick check, PBM binding z-score >= 0.6? `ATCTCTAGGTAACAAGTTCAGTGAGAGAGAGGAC`
1 (yes)

Is reported PBM binding z-score greater than or equal to 0.6 here: `CCGACCGGGGCAGAAAGGTTACCATACCATCCGG`
0 (no)

In plain terms: is recorded PBM binding z-score at least 0.6 for `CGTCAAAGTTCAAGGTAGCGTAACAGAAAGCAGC` ?
0 (no)

---

test system: LXRb homodimer (NR concentration 270 nM); experiment: PBM binding z-score (relative to random genomic background probes); higher = stronger binding; sequences stand for … in GC…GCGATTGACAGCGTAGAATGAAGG
Classification field: enter Fulfilled for PBM binding z-score values not below -0.3, Not fulfilled for values below it.

Please indicate if the recorded PBM binding z-score for `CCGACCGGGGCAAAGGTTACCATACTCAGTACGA` meets or exceeds -0.3.
Not fulfilled

Assess whether reported PBM binding z-score for `CGAAGTAGGTCATCCAGGACAGTGAATACATTGA` sits at -0.3 or higher.
Fulfilled

Could you please find out whether `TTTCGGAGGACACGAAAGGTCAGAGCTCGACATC` has PBM binding z-score that meets -0.3 or exceeds it?
Fulfilled

For this sequence, is measured PBM binding z-score -0.3 or higher? `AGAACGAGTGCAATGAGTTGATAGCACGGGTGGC`
Not fulfilled

Tell me whether PBM binding z-score is at least -0.3 here: `AGTACAGGGTCATCGTAGGCCAGAGTACGCACAG`
Fulfilled

Hey, just so you know, these numbers are from the supplement of paper PMC6555819.
